Reported values of log10 IC50 for individual entries
Molecular target: UniProt:P31424
Test: FLIPR Calcium 3 fluorescence-based functional assay of intracellular calcium, mGluR5 antagonist activity
Conditions: inhibition of glutamate (EC90, ~50 uM) stimulated calcium levels, mGluR5 HEK-293 cells; read-out: mGluR5 FLIPR MP Antagonist DR IC50
Values below are the log10 of the recorded IC50, with µM as the unit.

stdin: Answer with the recorded log10 IC50 of "Cc1ccc(C(=O)N2CCc3cccnc3C2)cc1C#Cc1ccccn1" only.
stdout: -2.10

stdin: Return reported log10 IC50. Input compound: "COc1ccc(C(=O)N2CCc3sccc3C2)cc1C#Cc1ccccn1"
stdout: -1.36

stdin: Answer with the recorded log10 IC50 of "O=C(c1ccc(C(F)(F)F)c(C#Cc2ccccn2)c1)N1Cc2ccccc2C1" only.
stdout: -1.16

stdin: Entry "O=C(c1ccc(Cl)c(C#Cc2ccccn2)c1)N1CCc2ncccc2C1" needs its log10 IC50 filled in; supply it.
stdout: -1.59

stdin: Quickly give me recorded log10 IC50 for "O=C(c1ccc(C(F)(F)F)c(C#Cc2ccccn2)c1)N1Cc2cccnc2C1"
stdout: -2.15

stdin: For "COc1ccc(C(=O)N2CCc3nc(C)sc3C2)cc1C#Cc1ccccn1" , write its log10 IC50.
stdout: -1.38

stdin: Give log10 IC50 for the following compound: "Cc1ccc(C(=O)N2Cc3cccnc3C2)cc1C#Cc1ccccn1"
stdout: -2.40

stdin: Output measured log10 IC50 for this item: "CCOc1ccc(C(=O)N2CCc3ccccc3C2)cc1C#Cc1ccccn1"
stdout: -1.96

stdin: Please report log10 IC50 for the following compound: "COc1ccc(C(=O)N2CCc3cc(OC)c(OC)cc3C2)cc1C#Cc1ccccn1"
stdout: -1.31

====

Measured log10(Ki) (rat mGluR5 receptor (Rattus norvegicus, UniProt P31424))
All values: base-10 log of Ki in nM.

>  <molecule>
O=C(c1ccc(C(F)(F)F)c(C#Cc2ccccn2)c1)N1CCc2ccccc2C1 [Example 93]

>  <log10(Ki)>
0.30

$$$$
>  <molecule>
O=C(c1ccc(Cl)c(C#Cc2ccccn2)c1)N1CCc2ccc(F)cc2C1 [Example 70]

>  <log10(Ki)>
-0.40

$$$$
>  <molecule>
COc1ccc(C(=O)N2CCn3c(nnc3C(F)(F)F)C2)cc1C#Cc1ccccn1 [Example 49]

>  <log10(Ki)>
2.43

$$$$
>  <molecule>
COc1ccc(C(=O)N2Cc3ccc(C)cc3C2)cc1C#Cc1ccccn1 [Example 32]

>  <log10(Ki)>
0.48

$$$$
>  <molecule>
COc1ccc(C(=O)N2CCc3c(cccc3C(F)(F)F)C2)cc1C#Cc1ccccn1 [Example 4]

>  <log10(Ki)>
-0.40

$$$$
>  <molecule>
Cc1ccc(C(=O)N2CCc3ncccc3C2)cc1C#Cc1ccccn1 [Example 85]

>  <log10(Ki)>
0.60

$$$$

stdin: Give log10(Ki) for COc1ccc(C(=O)N2Cc3ccccc3C(Oc3ccc(C(F)(F)F)cc3)C2)cc1C#Cc1ccccn1 (centres unmarked) [Example 24] tested on rat mGluR5 receptor (Rattus norvegicus, UniProt P31424).
Sequence (P31424 21-1203): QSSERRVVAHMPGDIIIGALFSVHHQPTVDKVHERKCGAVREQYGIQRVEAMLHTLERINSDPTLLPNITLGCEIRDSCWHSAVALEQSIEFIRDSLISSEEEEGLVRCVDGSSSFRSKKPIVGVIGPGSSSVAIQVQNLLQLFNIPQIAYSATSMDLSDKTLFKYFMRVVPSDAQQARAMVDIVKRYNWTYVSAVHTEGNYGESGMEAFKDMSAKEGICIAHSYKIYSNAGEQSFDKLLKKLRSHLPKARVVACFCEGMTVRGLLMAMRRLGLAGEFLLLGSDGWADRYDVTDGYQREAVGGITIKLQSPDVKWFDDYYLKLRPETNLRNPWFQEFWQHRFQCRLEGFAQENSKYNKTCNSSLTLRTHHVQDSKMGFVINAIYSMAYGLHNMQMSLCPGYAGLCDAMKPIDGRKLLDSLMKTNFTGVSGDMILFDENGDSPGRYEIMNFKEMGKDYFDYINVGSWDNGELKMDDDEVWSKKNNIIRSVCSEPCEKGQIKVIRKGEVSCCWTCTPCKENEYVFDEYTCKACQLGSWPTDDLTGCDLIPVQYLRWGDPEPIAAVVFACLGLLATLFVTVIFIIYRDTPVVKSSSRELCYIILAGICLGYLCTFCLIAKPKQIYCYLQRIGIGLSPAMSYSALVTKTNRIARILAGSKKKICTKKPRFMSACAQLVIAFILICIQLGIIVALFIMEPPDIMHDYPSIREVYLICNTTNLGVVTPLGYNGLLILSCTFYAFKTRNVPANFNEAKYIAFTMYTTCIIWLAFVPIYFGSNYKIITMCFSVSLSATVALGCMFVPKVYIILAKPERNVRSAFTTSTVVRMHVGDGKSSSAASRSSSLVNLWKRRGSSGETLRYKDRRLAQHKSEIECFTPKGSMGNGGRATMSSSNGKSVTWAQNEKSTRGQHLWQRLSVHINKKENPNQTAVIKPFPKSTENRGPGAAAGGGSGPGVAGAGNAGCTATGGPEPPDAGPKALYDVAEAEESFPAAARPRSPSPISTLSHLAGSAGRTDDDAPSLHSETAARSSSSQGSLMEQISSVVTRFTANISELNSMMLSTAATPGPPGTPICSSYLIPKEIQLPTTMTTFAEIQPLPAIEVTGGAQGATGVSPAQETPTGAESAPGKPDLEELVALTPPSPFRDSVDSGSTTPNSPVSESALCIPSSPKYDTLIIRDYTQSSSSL
stdout: 2.72

stdin: Give log10(Ki) for O=C(c1ccc(OCC2CC2)c(C#Cc2ccccn2)c1)N1CCc2ccccc2C1 [Example 79] tested on rat mGluR5 receptor (Rattus norvegicus, UniProt P31424).
stdout: 1.36

====

IC50: recorded values
Target: metabotropic glutamate receptor 5 (Rattus norvegicus, UniProt P31424)
Sequence (P31424 21-1203): as above
Assay: FLIPR Calcium 3 fluorescence-based functional assay of intracellular calcium, mGluR5 antagonist activity
Settings: inhibition of glutamate (EC90, ~50 uM) stimulated calcium levels, mGluR5 HEK-293 cells; read-out: mGluR5 FLIPR MP Antagonist DR IC50
# answer = value followed by unit

// worked examples, IC50 included
>  <molecule>
COc1ccc(C(=O)N2Cc3ccc(C)cc3C2)cc1C#Cc1ccccn1

>  <measurement-type>
IC50

>  <result>
0.042 µM

$$$$
>  <molecule>
COc1ccc(C(=O)N2CCc3ncc(C)cc3C2)cc1C#Cc1ccccn1

>  <measurement-type>
IC50

>  <result>
0.021 µM

$$$$
>  <molecule>
O=C(c1ccc(OCC2CC2)c(C#Cc2ccccn2)c1)N1CCc2ccccc2C1

>  <measurement-type>
IC50

>  <result>
0.034 µM

$$$$
>  <molecule>
COc1ccc(C(=O)N2Cc3cccc(Cl)c3C2)cc1C#Cc1ccccn1

>  <measurement-type>
IC50

>  <result>
0.051 µM

$$$$
>  <molecule>
COc1ccc(C(=O)N2Cc3ccccc3C(CNc3ccccc3)C2)cc1C#Cc1ccccn1 (stereo not shown)

>  <measurement-type>
IC50

>  <result>
0.447 µM

$$$$
>  <molecule>
COc1ccc(C(=O)N2CCc3cccnc3C2)cc1C#Cc1ccccn1

>  <measurement-type>
IC50

>  <result>
0.017 µM

$$$$

With those in mind, consider the next molecule.
stdin: Write down IC50 measured for item "COc1ccc(C(=O)N2CCc3ncc(Cl)cc3C2)cc1C#Cc1ccccn1"
stdout: 0.03 µM

====

Reported pKi, UniProt:P31424.
# reply with the number alone; pKi is -log10 of concentration in mol/L

Worked examples, 5 compounds total:
>  <compound>
CCOc1ccc(C(=O)N2Cc3ccccc3C2)cc1C#Cc1ccccn1

>  <measurement-type>
pKi

>  <quantitative-result>
8.30

$$$$
>  <compound>
O=C(c1ccc(Cl)c(C#Cc2ccccn2)c1)N1CCc2c(Cl)cccc2C1

>  <measurement-type>
pKi

>  <quantitative-result>
10.00

$$$$
>  <compound>
COc1ccc(C(=O)N2CCc3ncccc3C2)cc1C#Cc1ccccn1

>  <measurement-type>
pKi

>  <quantitative-result>
7.64

$$$$
>  <compound>
COc1ccc(C(=O)N2Cc3ccc(Br)cc3C2)cc1C#Cc1ccccn1

>  <measurement-type>
pKi

>  <quantitative-result>
8.70

$$$$
>  <compound>
Cc1ccc(C(=O)N2Cc3ccccc3C2)cc1C#Cc1ccccn1

>  <measurement-type>
pKi

>  <quantitative-result>
9.00

$$$$

stdin: Please look at this compound and report its pKi: "COc1ccc(C(=O)N2CCc3ccc(Cl)cc3C2)cc1C#Cc1ccccn1"
stdout: 9.00

stdin: Hello, please tell me recorded pKi for this one: "COc1ccc(C(=O)N2CCc3ccc(C#N)cc3C2)cc1C#Cc1ccccn1"
stdout: 7.96

stdin: Please list pKi recorded for the compound COc1ccc(C(=O)N2CCc3ccccc3C2Cc2ccccc2)cc1C#Cc1ccccn1 (stereo not drawn)
stdout: 6.49

stdin: # return recorded pKi for input COc1ccc(C(=O)N2CCc3ccccc3C2c2cccs2)cc1C#Cc1ccccn1 (stereo not drawn)
stdout: 7.66

====

Entries with reported Ki on rat mGluR5 receptor (Rattus norvegicus, UniProt P31424)
State the answer as a number, implicitly in nM.

Illustrative cases are given below, each with its answer.
>  <structure-smiles-string>
COc1ccc(C(=O)N2CCc3cc(OC)c(OC)cc3C2)cc1C#Cc1ccccn1

>  <assay-system>
rat mGluR5 receptor (Rattus norvegicus, UniProt P31424)

>  <quantitative-result>
36

$$$$
>  <structure-smiles-string>
O=C(c1ccc(F)c(C#Cc2ccccn2)c1)N1CCc2c(Cl)cccc2C1

>  <assay-system>
rat mGluR5 receptor (Rattus norvegicus, UniProt P31424)

>  <quantitative-result>
1

$$$$
>  <structure-smiles-string>
COc1ccc2c(c1)CCN(C(=O)c1ccc(OC)c(C#Cc3ccccn3)c1)C2

>  <assay-system>
rat mGluR5 receptor (Rattus norvegicus, UniProt P31424)

>  <quantitative-result>
8

$$$$
>  <structure-smiles-string>
O=C(c1ccc(C(F)(F)F)c(C#Cc2ccccn2)c1)N1CCc2[nH]ncc2C1

>  <assay-system>
rat mGluR5 receptor (Rattus norvegicus, UniProt P31424)

>  <quantitative-result>
4

$$$$
>  <structure-smiles-string>
COc1ccc(C(=O)N2CCc3c(OC)ccc(OC)c3C2)cc1C#Cc1ccccn1

>  <assay-system>
rat mGluR5 receptor (Rattus norvegicus, UniProt P31424)

>  <quantitative-result>
6

$$$$
>  <structure-smiles-string>
O=C(c1ccc(Cl)c(C#Cc2ccccn2)c1)N1Cc2ccccc2C1

>  <assay-system>
rat mGluR5 receptor (Rattus norvegicus, UniProt P31424)

>  <quantitative-result>
1

$$$$

// below: Ki requested for another compound
stdin: Give measured Ki for "O=C(c1ccc(C(F)(F)F)c(C#Cc2ccccn2)c1)N1CCc2c(Cl)cccc2C1" (rat mGluR5 receptor (Rattus norvegicus, UniProt P31424)).
stdout: 4

====

Below are compounds with their pKi as measured on rat mGluR5 receptor (Rattus norvegicus).
Reminder that pKi is minus the log10 of a molar concentration.

>  <compound>
COc1ccc(C(=O)N2Cc3cnc(C)c(C)c3C2)cc1C#Cc1ccccn1 [Example 42]

>  <quantitative-result>
7.70

$$$$
>  <compound>
Cc1ccc(C(=O)N2CCc3c(Cl)cccc3C2)cc1C#Cc1ccccn1 [Example 84]

>  <quantitative-result>
9.52

$$$$

stdin: Provide pKi, tested on rat mGluR5 receptor (Rattus norvegicus), for COc1ccc(C(=O)N2CCc3ccccc3CC2)cc1C#Cc1ccccn1 [Example 57] .
stdout: 7.82

stdin: Please report the measured pKi for O=C(c1ccc(C(F)(F)F)c(C#Cc2ccccn2)c1)N1Cc2cccnc2C1 [Example 92] tested on rat mGluR5 receptor (Rattus norvegicus).
stdout: 8.52

stdin: State the measured pKi (rat mGluR5 receptor (Rattus norvegicus)) of COc1ccc(C(=O)N2CCc3ccccc3C2c2ccccc2)cc1C#Cc1ccccn1 (centres unmarked) [Example 26]
stdout: 7.24
